Assay: Half life in human liver microsomes at 1 uM preincubated for 5 mins followed by NADPH addition and measured by LC/MS/MS analysis
Type: ADME, microsome
Settings: microsomes, 1 µM
ENDPOINT_LABEL: t1/2 (h)
Expressed in h, but write only the number.

Recorded t1/2, per entry:
{"SUBSTANCE_SMILES": "O=C(N[C@@H](Cn1ccnc1)c1ccc(-c2ccc(F)cc2)cc1F)c1ccc(-c2nnc(-c3ccccc3)o2)cc1", "ENDPOINT_LABEL": "t1/2", "READING": 0.7}
{"SUBSTANCE_SMILES": "O=C(N[C@@H](Cn1ccnc1)c1ccc(-c2ccccc2)cc1Cl)c1ccc(-c2nnc(-c3ccccc3)o2)cc1", "ENDPOINT_LABEL": "t1/2", "READING": 1}
{"SUBSTANCE_SMILES": "O=C(N[C@@H](Cn1ccnc1)c1c(F)cc(-c2ccc(F)cc2)cc1F)c1ccc(-c2nnc(-c3ccccc3)o2)cc1", "ENDPOINT_LABEL": "t1/2", "READING": 1.07}

Attention now turns to another entry.
What does the data say about its t1/2? Entry: O=C(N[C@@H](Cn1ccnc1)c1ccc(-c2ccc(F)cc2)cc1Cl)c1ccc(-c2nnc(-c3ccccc3)o2)cc1 1.5

---

Biological target: Sterol 14-alpha demethylase (Trypanosoma cruzi (strain CL Brener), UniProt Q7Z1V1)
Sequence (Q7Z1V1 whole entry): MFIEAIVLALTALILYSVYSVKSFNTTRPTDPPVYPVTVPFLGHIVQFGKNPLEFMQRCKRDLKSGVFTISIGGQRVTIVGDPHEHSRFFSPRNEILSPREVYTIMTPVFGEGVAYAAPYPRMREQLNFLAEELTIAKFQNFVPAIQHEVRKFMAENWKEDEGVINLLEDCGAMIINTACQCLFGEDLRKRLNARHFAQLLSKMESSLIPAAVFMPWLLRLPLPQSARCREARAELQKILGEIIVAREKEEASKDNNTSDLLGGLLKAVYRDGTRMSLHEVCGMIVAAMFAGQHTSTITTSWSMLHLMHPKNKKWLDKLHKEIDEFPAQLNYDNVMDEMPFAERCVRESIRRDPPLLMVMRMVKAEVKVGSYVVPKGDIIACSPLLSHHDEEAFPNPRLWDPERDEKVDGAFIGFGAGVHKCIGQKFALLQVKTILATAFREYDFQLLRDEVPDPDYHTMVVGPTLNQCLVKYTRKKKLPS
Assay: Binding affinity to Trypanosoma cruzi Y CYP51A expressed in Escherichia coli
ENDPOINT_LABEL: Kd (nM)
Expressed in nM, but write only the number.

{"SUBSTANCE_SMILES": "O=C(N[C@@H](Cn1ccnc1)c1ccc(-c2ccc(F)cc2)cc1F)c1ccc(-c2nnc(-c3ccccc3)o2)cc1", "Kd / nM": 6.8}
{"SUBSTANCE_SMILES": "O=C(N[C@@H](Cn1ccnc1)c1ccc(Cl)cc1Cl)c1ccc(-c2nnc(-c3ccc(F)c(F)c3)o2)cc1", "Kd / nM": 4.2}
{"SUBSTANCE_SMILES": "O=C(N[C@@H](Cn1ccnc1)c1ccc(Cl)cc1Cl)c1ccc(-c2nnc(-c3ccccc3)o2)cc1", "Kd / nM": 8.3}

Attention now turns to another entry.
What does the data say about its Kd? Entry: O=C(N[C@@H](Cn1ccnc1)c1c(F)cc(-c2ccc(F)cc2)cc1F)c1ccc(-c2nnc(-c3ccccc3)o2)cc1 8.4

---

Test: Hepatic clearance in CD1 mouse liver microsomes at 1 uM preincubated for 5 mins followed by NADPH addition and measured after 45 mins by LC/MS/MS analysis
Format: ADME, microsome
Parameter: CLhep predicted at 1 µM. Scope: all listed entries.

Recorded CLhep predicted at 1 µM, per entry:
{"SUBSTANCE_SMILES": "O=C(N[C@@H](Cn1ccnc1)c1ccc(-c2ccccc2)cc1Cl)c1ccc(-c2nnc(-c3ccccc3)o2)cc1", "CLhep predicted at 1 µM": "1.49 L/h/kg"}
{"SUBSTANCE_SMILES": "O=C(N[C@@H](Cn1ccnc1)c1ccc(Cl)cc1Cl)c1ccc(-c2nnc(-c3ccc(F)c(F)c3)o2)cc1", "CLhep predicted at 1 µM": "2.07 L/h/kg"}
{"SUBSTANCE_SMILES": "O=C(N[C@@H](Cn1ccnc1)c1c(F)cc(-c2ccc(F)cc2)cc1F)c1ccc(-c2nnc(-c3ccccc3)o2)cc1", "CLhep predicted at 1 µM": "3.91 L/h/kg"}
{"SUBSTANCE_SMILES": "O=C(N[C@@H](Cn1ccnc1)c1ccc(-c2ccc(F)cc2)cc1Cl)c1ccc(-c2nnc(-c3ccccc3)o2)cc1", "CLhep predicted at 1 µM": "2.15 L/h/kg"}
{"SUBSTANCE_SMILES": "O=C(N[C@@H](Cn1ccnc1)c1ccc(-c2ccc(F)cc2)cc1F)c1ccc(-c2nnc(-c3ccccc3)o2)cc1", "CLhep predicted at 1 µM": "3.34 L/h/kg"}
{"SUBSTANCE_SMILES": "O=C(N[C@@H](Cn1ccnc1)c1ccc(-c2ccc(F)cc2)cc1Cl)c1ccc(-c2nnc(-c3ccncc3)o2)cc1", "CLhep predicted at 1 µM": "2.83 L/h/kg"}
{"SUBSTANCE_SMILES": "CS(=O)(=O)c1ccc(-c2ccc([C@H](Cn3ccnc3)NC(=O)c3ccc(-c4nnc(-c5ccccc5)o4)cc3)c(Cl)c2)cc1", "CLhep predicted at 1 µM": "3.16 L/h/kg"}
{"SUBSTANCE_SMILES": "O=C(N[C@@H](Cn1ccnc1)c1ccc(-c2ccc(F)cc2)cc1Cl)c1ccc(-c2nnc(-c3ccccn3)o2)cc1", "CLhep predicted at 1 µM": "2.9 L/h/kg"}

Attention now turns to another entry.
What does the data say about its CLhep predicted at 1 µM? Entry: [2H]c1c([2H])c([2H])c(-c2ccc([C@H](Cn3ccnc3)NC(=O)c3ccc(-c4nnc(-c5ccccc5)o4)cc3)c(Cl)c2)c([2H])c1[2H] 3.83 L/h/kg
